Source listed as patent US20200087408A1.

# Assayed target: cynomolgus IL-36R (on cells, allelic variant not stated) (cynomolgus monkey), A0A2K5
# Sequence (chain, as listed by the source mutant): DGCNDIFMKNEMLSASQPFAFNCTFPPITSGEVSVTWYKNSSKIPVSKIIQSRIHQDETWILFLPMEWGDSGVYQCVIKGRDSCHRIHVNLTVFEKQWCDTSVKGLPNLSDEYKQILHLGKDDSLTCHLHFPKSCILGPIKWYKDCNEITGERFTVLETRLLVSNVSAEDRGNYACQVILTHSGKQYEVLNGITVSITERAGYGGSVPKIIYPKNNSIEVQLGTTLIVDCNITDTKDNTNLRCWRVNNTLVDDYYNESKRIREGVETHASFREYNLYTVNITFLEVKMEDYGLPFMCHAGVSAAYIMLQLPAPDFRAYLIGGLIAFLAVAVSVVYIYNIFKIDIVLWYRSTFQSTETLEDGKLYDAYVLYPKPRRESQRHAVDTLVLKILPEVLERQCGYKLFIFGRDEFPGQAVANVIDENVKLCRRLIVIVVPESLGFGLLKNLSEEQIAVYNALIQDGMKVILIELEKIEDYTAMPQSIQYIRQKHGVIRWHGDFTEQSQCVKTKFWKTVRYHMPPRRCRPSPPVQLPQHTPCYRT
# Measurement notes: cell-based or functional assay
Listing of entries alongside the reported EC50 (nM), IL-8 secretion by primary cynomolgus keratinocytes, 10 ng/ml cyno IL-36β.
// return numeric value only (unit: nM, not printed)

Examples with answers:
Measured EC50 (nM), IL-8 secretion by primary cynomolgus keratinocytes, 10 ng/ml cyno IL-36β of Hzd 18D4 (APE7247) (antibody, V domains shown) VH: DVQFQESGPGLVKPSQTLSLTCTVTGYSITADFAWNWIRQPPGKGLEWIGYISYSGDTNYNPSLKSRVTITRDTSKNQFSLKLSSVTAADTAVYFCAIRGPYSFTYWGQGTLVTVSSA VL: DIQMTQSPSSLSASVGDRVTITCRASQWINNYLNWYQQKPGKAPKLLIYYTSMLHSGVPSRFSPSGSGNDYTFTISSLQPEDIATYYCQQGHTLPWTFGGGTKVEIKRT : 1.8

Measured EC50 (nM), IL-8 secretion by primary cynomolgus keratinocytes, 10 ng/ml cyno IL-36β of Hzd 5D3 (APE6155) (antibody, V domains shown, also called APE6917; APE06155) VH: QVQLVQSGAEVKKPGASVKVSCKASGYTFTNYWMNWVRQAPRQGLEWMGMFHPTGDVTRLNQKFKDRVTMTRDTSTSTVYMELSSLRSEDTAVYYCARTTSMIIGGFAYWGQGTLVTVSS VL: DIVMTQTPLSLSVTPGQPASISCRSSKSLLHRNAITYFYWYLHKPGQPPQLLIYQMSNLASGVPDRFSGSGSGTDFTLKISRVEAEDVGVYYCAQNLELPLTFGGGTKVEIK : 1.4

Measured EC50 (nM), IL-8 secretion by primary cynomolgus keratinocytes, 10 ng/ml cyno IL-36β of Hzd 5D3 (APE6060) (antibody, V domains shown, also called 5D3 Humanized) VH: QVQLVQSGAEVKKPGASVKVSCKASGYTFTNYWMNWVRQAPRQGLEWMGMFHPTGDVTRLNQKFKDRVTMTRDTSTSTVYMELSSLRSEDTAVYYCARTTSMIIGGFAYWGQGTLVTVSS VL: DIVMTQTPLSLSVTPGQPASISCRSSKSLLHRNAITYFYWYLQKPGQPPQLLIYQMSNLASGVPDRFSGSGSGTDFTLKISRVEAEDVGVYYCAQNLELPLTFGGGTKVEIK : 1.4

Please turn your attention to the following entry.
Measured EC50 (nM), IL-8 secretion by primary cynomolgus keratinocytes, 10 ng/ml cyno IL-36β of Hzd 5D3 (APE6194) (antibody, V domains shown, also called 5D3 Humanized) VH: QVQLVQSGAEVKKPGASVKVSCKASGYTFTNYWMNWVRQAPRQGLEWMGMFHPYGDVTRLNQKFKDRVTMTRDTSTSTVYMELSSLRSEDTAVYYCARTTSMIIGGFAYWGQGTLVTVSS VL: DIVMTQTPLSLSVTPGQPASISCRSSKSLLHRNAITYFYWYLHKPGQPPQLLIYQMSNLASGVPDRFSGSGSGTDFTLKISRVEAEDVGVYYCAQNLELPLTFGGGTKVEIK : 2
